Target: human Kv7.2 (Homo sapiens (Human), UniProt O43526)
Assay: SyncroPatch 384 electrophysiology, activation of Kv7.2 in CHO cells
Assay type: cell-based
Details: CHO; Kv7.2 activation max %, relative to 30 μM ML-213 max activation
Readout label: Emax (%)

>  <Compound>
N#Cc1cccc(CNC(=O)N[C@@H]2C[C@H]2c2ccccc2)n1

>  <Emax, %>
62

$$$$
>  <Compound>
O=C(NCc1ccnc(-n2ccnc2)c1)NC1CC1C1CCCCC1 (stereo not drawn)

>  <Emax, %>
52

$$$$
>  <Compound>
[2H]C([2H])(NC(=O)N[C@@H]1C[C@H]1C(F)(F)F)c1ccnc(OC(F)F)c1 (racemic)

>  <Emax, %>
47

$$$$
>  <Compound>
O=C(NCc1ccnc(-c2cnco2)c1)N[C@@H]1C[C@H]1C1CCCCC1 (racemic)

>  <Emax, %>
63

$$$$
>  <Compound>
O=C(NCc1ccnc(-n2cccn2)c1)N[C@@H]1C[C@H]1c1ccccc1 [Example 13]

>  <Emax, %>
74

$$$$
>  <Compound>
O=C(NCc1ccnc(-c2cnsc2)c1)N[C@@H]1C[C@H]1C1CCCCC1 (racemic)

>  <Emax, %>
57

$$$$
